assay_notes: log P by HPLC (OECD Guideline 117), method [a] acidic range
Format: physicochemical
condition_label: HPLC, method [a] acidic range
assay_metric: logP[a]

compound	observed_result
Cc1ccc(-n2nc(-n3nc(Oc4ccccc4)n(C)c3=O)n(C)c2=O)cc1SCC(F)(F)F	3.76
Cc1cc(F)c(-n2nc(OCC(C)(C)C)n(C3CC3)c2=O)cc1[S+]([O-])CC(F)(F)F (racemic)	3.60
Cc1cc(F)c(-n2nc(C3CC3)n(C(C)C)c2=O)cc1SCC(F)(F)F	3.70
Cc1cc(C)c([S+]([O-])CC(F)(F)F)cc1-n1nnn(C(C)C)c1=O (racemic)	2.63
Cc1cc(F)c(-n2nc(OC3CCCCC3)n(C)c2=O)cc1[S+]([O-])CC(F)(F)F (centres unmarked)	3.29
